molecular target: CDK9/CycT1 (Homo sapiens); construct: Recombinant full-length His-tagged human CDK9 and CycT1; purchased Life Technologies PV4131; host or cells: insect cells; assay: CDK9/CycT1 high ATP kinase assay (TR-FRET, 2 mM ATP); type: biochemical; settings: 2 mM ATP (high ATP); median; read-out: CDK9/CyclinT1, 2 mM ATP (high ATP), IC50 (median)
Sequence (P50750 whole entry): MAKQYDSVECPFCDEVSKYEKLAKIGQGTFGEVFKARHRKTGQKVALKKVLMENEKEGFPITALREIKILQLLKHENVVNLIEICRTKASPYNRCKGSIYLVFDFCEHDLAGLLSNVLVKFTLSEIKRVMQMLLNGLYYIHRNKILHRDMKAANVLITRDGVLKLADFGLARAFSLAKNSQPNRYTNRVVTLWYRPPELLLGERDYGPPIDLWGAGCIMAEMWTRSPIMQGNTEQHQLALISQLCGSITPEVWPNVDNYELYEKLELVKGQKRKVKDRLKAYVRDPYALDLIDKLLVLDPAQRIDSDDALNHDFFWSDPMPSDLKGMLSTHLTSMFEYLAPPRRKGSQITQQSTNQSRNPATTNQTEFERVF
Sequence (O60563 whole entry partner): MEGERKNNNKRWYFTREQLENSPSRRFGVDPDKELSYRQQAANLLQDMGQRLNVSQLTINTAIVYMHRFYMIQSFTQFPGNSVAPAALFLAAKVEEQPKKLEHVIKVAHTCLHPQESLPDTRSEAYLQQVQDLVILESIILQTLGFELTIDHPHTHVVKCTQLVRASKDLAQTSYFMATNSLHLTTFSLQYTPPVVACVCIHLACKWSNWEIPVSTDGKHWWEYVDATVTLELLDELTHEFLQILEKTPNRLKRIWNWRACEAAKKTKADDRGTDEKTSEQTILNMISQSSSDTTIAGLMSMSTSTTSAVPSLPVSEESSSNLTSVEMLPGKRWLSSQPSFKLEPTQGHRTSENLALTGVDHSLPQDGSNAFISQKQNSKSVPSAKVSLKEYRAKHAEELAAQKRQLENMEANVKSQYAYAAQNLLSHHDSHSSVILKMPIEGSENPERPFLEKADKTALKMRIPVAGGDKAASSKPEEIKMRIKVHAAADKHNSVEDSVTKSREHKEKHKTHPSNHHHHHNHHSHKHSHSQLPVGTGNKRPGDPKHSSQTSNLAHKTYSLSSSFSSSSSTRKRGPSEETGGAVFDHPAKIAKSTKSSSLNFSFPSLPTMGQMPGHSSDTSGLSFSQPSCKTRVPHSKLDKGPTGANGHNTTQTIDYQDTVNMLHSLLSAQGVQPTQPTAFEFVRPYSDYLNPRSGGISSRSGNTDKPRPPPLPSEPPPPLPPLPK
Measured IC50 of individual entries

Answered examples (5):
1) Brc1cnn2c(NCc3nc4ccccc4[nH]3)nc(N3CCC3)nc12 [Example 143]: > 20 µM
2) Clc1cc2nc(CNc3nc(N4CC5CCC(C4)N5)nc4c(C5CC5)cnn34)[nH]c2cc1Cl [Example 324]: 12.3 µM
3) Cc1ccc2[nH]c(CNc3nc(N4C[C@@H]5CCCN[C@@H]5C4)nc4c(Br)cnn34)nc2c1 [Example 203]: > 20 µM
4) Fc1ccc(-c2nnc(CNc3nc(N4CCOCC4)nc4c(Br)cnn34)[nH]2)c(F)c1 [Example 41]: > 20 µM
5) O[C@H]1C[C@@H](Nc2nc(NCc3nc4ccccc4[nH]3)n3ncc(Br)c3n2)C1 [Example 234]: > 20 µM

Summary for this molecule, CC1(C)CN(c2nc(NCc3nnc(-c4ccccc4)[nH]3)n3ncc(Br)c3n2)CCO1 [Example 68] : IC50 is 5.34 µM

Summary for this molecule, FC(F)(F)c1ccc2[nH]c(CNc3nc(N4CCOCC4)nc4c(C5CC5)cnn34)nc2c1 [Example 322] : IC50 is > 20 µM

Summary for this molecule, Brc1cnn2c(NCc3nc4ccccc4[nH]3)nc(N3CC4CCC(C3)O4)nc12 [Example 351] : IC50 is > 20 µM

----------
test system: CAL-120, human breast adenocarcinoma cells; assay: Proliferation assay CAL-120 (crystal violet, 4 days); format: cell-based; settings: Homo sapiens, CAL-120, 96 h, CAL-120 cells, median, read-out: Prolif-CAL-120, IC50-[mol/l] (median)
test_readout: IC50 (nM)

Answered examples (5):
1) Clc1cc2nc(CNc3nc(N4CC5CCC(C4)N5)nc4c(C5CC5)cnn34)[nH]c2cc1Cl: 1.17
2) Brc1cnn2c(NCc3nnc(-c4cccnc4)[nH]3)nc(N3CCOCC3)nc12: 106
3) Brc1cnn2c(NCc3nc4ccccc4[nH]3)nc(N3C[C@H]4C[C@@H]3CN4)nc12: 7.31
4) FC(F)(F)c1cnn2c(NCc3nc4ccccc4[nH]3)nc(N3CCOCC3)nc12: 29.6
5) Brc1cnn2c(NCc3nc4ccccc4[nH]3)nc(N3CCOCC3)nc12: 12

a = Clc1cccc(-c2nnc(CNc3nc(N4CCOCC4)nc4c(Br)cnn34)[nH]2)c1
b = CC[C@H](CO)Nc1nc(NCc2nc3ccccc3[nH]2)n2ncc(Br)c2n1
INPUT: Field: lower IC50 | Options: a / b Field: selected label. Fill in the label of the entry you choose.
OUTPUT: a

----------
biological target: CDK12/CycK (Homo sapiens, UniProt Q9NYV4); experiment: CDK12/CycK high ATP kinase assay (TR-FRET, 2 mM ATP); type: biochemical; settings: 2 mM ATP (high ATP); median; read-out: CDK12/CyclinK, 2 mM ATP (high ATP), IC50-[mol/l] (median)
Sequence (Q9NYV4 with tags, fused parts or gaps, one chain of several): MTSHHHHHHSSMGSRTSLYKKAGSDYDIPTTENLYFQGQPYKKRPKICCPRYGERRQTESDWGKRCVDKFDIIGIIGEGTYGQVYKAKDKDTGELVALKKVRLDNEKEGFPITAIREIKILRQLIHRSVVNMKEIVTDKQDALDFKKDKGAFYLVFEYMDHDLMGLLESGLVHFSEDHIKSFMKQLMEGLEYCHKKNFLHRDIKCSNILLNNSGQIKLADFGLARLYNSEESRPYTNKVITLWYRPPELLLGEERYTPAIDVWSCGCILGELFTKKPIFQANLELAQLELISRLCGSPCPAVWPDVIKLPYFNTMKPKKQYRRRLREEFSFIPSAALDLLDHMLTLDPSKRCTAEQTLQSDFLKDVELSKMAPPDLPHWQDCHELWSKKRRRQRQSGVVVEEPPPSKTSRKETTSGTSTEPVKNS
test_readout: IC50 (µM)

1. COc1cccc(-c2cnc(CNc3nc(N4CCOCC4)nc4c(Br)cnn34)[nH]2)c1: 1.18

a = Brc1cnn2c(NCc3nnc(-c4ccccc4)[nH]3)nc(N3C[C@@H]4C[C@H]3CO4)nc12
b = Brc1cnn2c(NCc3nnc(-c4ccccc4)[nH]3)nc(N3CCCCC3)nc12
INPUT: Field: lower IC50 | Options: a / b Field: selected label. Fill in the label of the entry you choose.
OUTPUT: b
(b: 6.12 µM, a: 13.2 µM)

----------
biological target: CDK2/CycE (Homo sapiens, UniProt P24941); assay: CDK2/CycE kinase assay (TR-FRET, 2 mM ATP); conditions: 2 mM ATP (high ATP); median; read-out: CDK2/CyclinE, 2 mM ATP (high ATP), IC50 (median)
pIC50: −log10 of the molar value.
test_readout: pIC50

Answered examples (5):
1. OCC1CN(c2nc(NCc3nc4ccccc4[nH]3)n3ncc(Br)c3n2)C1 [Example 304]: 5.07
2. FC(F)(F)Oc1ccc2[nH]c(CNc3nc(N4C[C@H]5CC[C@@H](C4)N5)nc4c(Br)cnn34)nc2c1 [Example 382]: 4.85
3. Brc1cnn2c(NCc3nc4ccccc4[nH]3)nc(N3C[C@H]4CCCN[C@H]4C3)nc12 [Example 199]: 5.29
4. Cc1ccc2[nH]c(CNc3nc(N4C[C@@H]5CCCN[C@@H]5C4)nc4c(Br)cnn34)nc2c1 [Example 203]: 5.03
5. FC(F)(F)Oc1cccc(-c2cnc(CNc3nc(N4CCOCC4)nc4c(Br)cnn34)[nH]2)c1 [Example 82]: 4.94

a = CN1CCN(c2nc(NCc3nnc(-c4cccc(F)c4)[nH]3)n3ncc(Br)c3n2)CC1 [Example 136]
b = CC(C)c1cnn2c(NCc3ncc(-c4ccccc4)[nH]3)nc(N3CCN(C)CC3)nc12 [Example 31]
INPUT: Field: lower pIC50 | Options: a / b Field: selected label. Fill in the label of the entry you choose.
OUTPUT: b

I = Brc1cnn2c(NCc3nnc(-c4cccnc4)[nH]3)nc(N3CCOCC3)nc12 [Example 53]
II = OCC1CCN1c1nc(NCc2nc3ccccc3[nH]2)n2ncc(Br)c2n1 (stereo not shown) [Example 147]
INPUT: Field: lower pIC50 | Options: I / II Field: selected label. Fill in the label of the entry you choose.
OUTPUT: II

----------
biological target: CYCLIN K (nuclear staining in CAL-120 cells) (Homo sapiens, UniProt O75909); construct: endogenous in cells; host or cells: CAL-120 human breast cancer cells (DSMZ ACC 459); assay: CYCLIN K nuclear protein level: immunofluorescence high content analysis (CAL-120); assay type: cell-based; details: 24 h, 50% reduction of nuclear CCNK staining intensity, median, read-out: CYCLIN K degradation IF, DC50-[mol/l] (median)
Sequence (O75909 whole entry): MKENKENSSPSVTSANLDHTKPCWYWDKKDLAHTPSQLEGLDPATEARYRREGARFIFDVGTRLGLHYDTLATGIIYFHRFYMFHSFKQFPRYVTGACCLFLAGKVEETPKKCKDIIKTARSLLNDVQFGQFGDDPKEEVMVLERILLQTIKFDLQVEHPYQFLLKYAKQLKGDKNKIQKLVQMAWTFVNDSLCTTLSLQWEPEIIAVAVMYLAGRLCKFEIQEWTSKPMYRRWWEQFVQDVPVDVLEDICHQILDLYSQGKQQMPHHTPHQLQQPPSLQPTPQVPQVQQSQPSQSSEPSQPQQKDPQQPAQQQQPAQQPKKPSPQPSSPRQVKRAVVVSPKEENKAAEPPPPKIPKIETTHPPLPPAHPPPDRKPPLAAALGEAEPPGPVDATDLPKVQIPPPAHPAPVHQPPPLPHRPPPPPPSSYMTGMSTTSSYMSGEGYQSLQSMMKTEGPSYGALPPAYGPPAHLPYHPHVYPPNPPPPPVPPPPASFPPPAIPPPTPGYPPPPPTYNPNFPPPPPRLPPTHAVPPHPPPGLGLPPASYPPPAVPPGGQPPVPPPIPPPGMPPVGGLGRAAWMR
Sequence (Q9NYV4 whole entry partner): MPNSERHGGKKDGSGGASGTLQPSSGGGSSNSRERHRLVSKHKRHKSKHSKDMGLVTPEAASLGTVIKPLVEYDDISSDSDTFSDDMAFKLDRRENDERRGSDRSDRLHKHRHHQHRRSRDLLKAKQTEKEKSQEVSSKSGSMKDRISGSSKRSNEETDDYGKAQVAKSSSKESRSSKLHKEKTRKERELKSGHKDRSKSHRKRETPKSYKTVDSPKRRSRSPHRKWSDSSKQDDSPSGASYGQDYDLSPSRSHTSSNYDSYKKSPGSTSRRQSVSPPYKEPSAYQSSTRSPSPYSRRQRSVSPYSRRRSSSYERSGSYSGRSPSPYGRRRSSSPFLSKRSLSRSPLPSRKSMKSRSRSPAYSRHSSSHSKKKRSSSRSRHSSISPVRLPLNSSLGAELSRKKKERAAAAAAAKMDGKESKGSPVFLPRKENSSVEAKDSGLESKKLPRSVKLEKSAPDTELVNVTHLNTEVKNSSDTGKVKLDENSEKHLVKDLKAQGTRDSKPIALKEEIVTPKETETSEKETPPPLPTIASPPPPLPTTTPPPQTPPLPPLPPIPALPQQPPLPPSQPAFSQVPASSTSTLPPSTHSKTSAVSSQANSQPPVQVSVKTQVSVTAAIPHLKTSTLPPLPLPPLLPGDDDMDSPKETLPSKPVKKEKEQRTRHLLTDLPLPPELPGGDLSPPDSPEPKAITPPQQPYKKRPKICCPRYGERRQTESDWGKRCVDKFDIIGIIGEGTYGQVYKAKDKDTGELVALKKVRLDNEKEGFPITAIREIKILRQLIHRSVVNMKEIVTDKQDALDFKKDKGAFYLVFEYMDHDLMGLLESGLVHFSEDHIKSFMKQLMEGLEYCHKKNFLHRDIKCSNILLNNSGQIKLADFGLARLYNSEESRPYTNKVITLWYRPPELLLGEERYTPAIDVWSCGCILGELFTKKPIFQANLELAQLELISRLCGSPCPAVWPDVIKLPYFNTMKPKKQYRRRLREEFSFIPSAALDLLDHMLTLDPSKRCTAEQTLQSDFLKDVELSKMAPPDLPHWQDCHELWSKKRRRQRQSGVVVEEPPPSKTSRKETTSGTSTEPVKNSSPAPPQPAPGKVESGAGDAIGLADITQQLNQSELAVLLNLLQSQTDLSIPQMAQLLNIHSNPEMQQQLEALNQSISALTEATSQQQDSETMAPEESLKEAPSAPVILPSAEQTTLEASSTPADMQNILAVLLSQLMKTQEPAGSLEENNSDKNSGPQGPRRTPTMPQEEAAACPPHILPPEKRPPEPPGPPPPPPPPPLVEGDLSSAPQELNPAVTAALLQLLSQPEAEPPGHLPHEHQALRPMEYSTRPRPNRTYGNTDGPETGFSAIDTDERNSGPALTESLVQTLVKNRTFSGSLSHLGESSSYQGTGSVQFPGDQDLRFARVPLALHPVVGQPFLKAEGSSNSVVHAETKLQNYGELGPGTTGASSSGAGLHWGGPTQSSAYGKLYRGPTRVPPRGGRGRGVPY
test_readout: DC50 (nM)

1 = CN1CC2CCC1CN2c1nc(NCc2nc3ccccc3[nH]2)n2ncc(Br)c2n1 (centres unmarked)
2 = C[C@@H]1CN(c2nc(NCc3nc4ccccc4[nH]3)n3ncc(C4CC4)c3n2)C[C@H](C)N1
3 = C[C@H]1CCCCN1c1nc(NCc2nc3ccccc3[nH]2)n2ncc(Br)c2n1
4 = CN1CCN(c2nc(NCc3nc4ccccc4[nH]3)n3ncc(C4CC4(F)F)c3n2)CC1 (centres unmarked)
INPUT: Ascending sort, DC50. List the labels, following the order given in the request.
OUTPUT: 1, 2, 3, 4
(1: 0.41 nM, 2: 0.648 nM, 3: 1.74 nM, 4: 6.19 nM)

1 = Cc1cc2nc(CNc3nc(N4CCN(C)CC4)nc4c(C5CC5)cnn34)[nH]c2cc1C
2 = COc1ccccc1-c1nnc(CNc2nc(N3CCOCC3)nc3c(Br)cnn23)[nH]1
3 = Fc1ccc2[nH]c(CNc3nc(N4CCOCC4)nc4c(Br)cnn34)nc2c1F
INPUT: Descending sort on DC50 required. List the labels, following the order given in the request.
OUTPUT: 2, 1, 3
(2: 3.59 nM, 1: 0.518 nM, 3: 0.263 nM)

I = CN1C[C@H]2C[C@@H]1CN2c1nc(NCc2nc3ccccc3[nH]2)n2ncc(Br)c2n1
II = Fc1cccc2[nH]c(CNc3nc(N4C[C@@H]5CCCN[C@@H]5C4)nc4c(C5CC5)cnn34)nc12
III = c1cncc(-c2cnn3c(NCc4nc5ccccc5[nH]4)nc(N4CCOCC4)nc23)c1
IV = C[C@@H]1CN(c2nc(NCc3nnc(-c4ccccc4)[nH]3)n3ncc(Br)c3n2)CCN1C.O=CO [Example 130, formate]
INPUT: Descending sort on DC50 required. List the labels, following the order given in the request.
OUTPUT: III, IV, I, II

I = OCC1COCCN1c1nc(NCc2nc3ccccc3[nH]2)n2ncc(Br)c2n1 (centres unmarked)
II = C[C@H]1CN(c2nc(NCc3nc4ccccc4[nH]3)n3ncc(Br)c3n2)CCN1C
INPUT: Field: lower DC50 | Options: I / II Field: selected label. Fill in the label of the entry you choose.
OUTPUT: I

a = CN1CC[C@H]2CN(c3nc(NCc4nc5ccccc5[nH]4)n4ncc(Br)c4n3)C[C@H]21
b = Brc1cnn2c(NCc3nnc(-c4ccccc4)[nH]3)nc(N3CCCCC3)nc12
c = CN1CCN(c2nc(NCc3nc4c(F)c(Cl)ccc4[nH]3)n3ncc(C4CC4)c3n2)CC1
d = FC(F)(F)Oc1cccc(-c2cnc(CNc3nc(N4CCOCC4)nc4c(Br)cnn34)[nH]2)c1
e = Clc1ccc2[nH]c(CNc3nc(N4CCOCC4)nc4c(Br)cnn34)nc2c1
INPUT: Descending sort on DC50 required. List the labels, following the order given in the request.
OUTPUT: d, b, a, c, e

A = COC(=O)C1CCN(c2nc(NCc3nc4ccccc4[nH]3)n3ncc(Br)c3n2)CC1
B = CN1CCN(c2nc(NCc3nnc(-c4cccc(F)c4)[nH]3)n3ncc(Br)c3n2)CC1
C = Cc1ccc2[nH]c(CNc3nc(N4C[C@@H]5CCCN[C@@H]5C4)nc4c(C5CC5)cnn34)nc2c1
D = Fc1cccc2[nH]c(CNc3nc(N4CCOCC4)nc4c(C5CC5)cnn34)nc12
E = Fc1ccc2[nH]c(CNc3nc(N4CCOCC4)nc4c(C5CC5(F)F)cnn34)nc2c1 (racemic) [Example 286]
INPUT: Sort (5 compounds) by DC50: min first. List the labels, following the order given in the request.
OUTPUT: B, D, C, E, A
(B: 0.464 nM, D: 0.815 nM, C: 1.29 nM, E: 1.89 nM, A: 4.09 nM)

a = Clc1cnn2c(NCc3nc4ccccc4[nH]3)nc(N3CCOCC3)nc12
b = Clc1cc2nc(CNc3nc(N4CCOCC4)nc4c(C5CC5)cnn34)[nH]c2cc1Cl
INPUT: In the pair a and b , the larger recorded DC50 belongs to which? Field: selected label. Fill in the label of the entry you choose.
OUTPUT: a
(a: 4.51 nM, b: 0.59 nM)

a = Brc1cnn2c(NCc3nnc(-c4ccccc4)[nH]3)nc(N3CCCC3)nc12
b = C[C@@H]1CN(c2nc(NCc3nc4ccccc4[nH]3)n3ncc(Br)c3n2)CCN1C
INPUT: In the pair a and b , the larger recorded DC50 belongs to which? Field: selected label. Fill in the label of the entry you choose.
OUTPUT: a
(a: 4.89 nM, b: 0.554 nM)
